Test system: FL5.12/Bcl-2 cells
experimental-details: FL5.12/Bcl-2 cell viability assay
Assay type: cell-based, murine
condition-context: ratio of canine platelet EC50 to FL5.12/Bcl-2 EC50
Examples of compounds with documented Selectivity Ratio (Platelet EC50/FL5.12/Bcl-2 EC50) follow.

Observe how each entry below is paired with its result.
CN(C)CCCNc1ccc(S(=O)(=O)NC(=O)c2ccc(N3CCN(Cc4ccccc4-c4ccc(Cl)cc4)CC3)cc2Oc2ccc3ccccc3c2)cc1[N+](=O)[O-]; >327
O=C(NS(=O)(=O)c1ccc(NCC2CCOCC2)c([N+](=O)[O-])c1)c1ccc(N2CCN(Cc3cc(OCCN4CCOCC4)ccc3-c3ccc(Cl)cc3)CC2)cc1Oc1cccc2[nH]ccc12; >254
O=C(NS(=O)(=O)c1ccc(NCCCN2CCCC2)c([N+](=O)[O-])c1)c1ccc(N2CCN(CC3=C(c4ccc(Cl)cc4)CCCCCC3)CC2)cc1Oc1cccc2[nH]ccc12; >185

Per the record, CN(C)CCOc1cccc(-c2ccc(Cl)cc2)c1CN1CCN(c2ccc(C(=O)NS(=O)(=O)c3ccc(NCC4CCOCC4)c([N+](=O)[O-])c3)c(Oc3ccccc3)c2)CC1 has Selectivity Ratio (Platelet EC50/FL5.12/Bcl-2 EC50) of >1259

# compound CN1CCC(Nc2ccc(S(=O)(=O)NC(=O)c3ccc(N4CCN(CC5=C(c6ccc(Cl)cc6)CC(C)(C)CC5)CC4)cc3Oc3ccccc3)cc2[N+](=O)[O-])CC1 ; its Selectivity Ratio (Platelet EC50/FL5.12/Bcl-2 EC50) = 283
